# measurementProtocol: self-splicing fitness, log relative to wild type (ln ratio); higher = more splicing; Tetrahymena group I intron in knt gene, E. coli kanamycin selection, DiMSum; sequences stand for … in CUCUCU…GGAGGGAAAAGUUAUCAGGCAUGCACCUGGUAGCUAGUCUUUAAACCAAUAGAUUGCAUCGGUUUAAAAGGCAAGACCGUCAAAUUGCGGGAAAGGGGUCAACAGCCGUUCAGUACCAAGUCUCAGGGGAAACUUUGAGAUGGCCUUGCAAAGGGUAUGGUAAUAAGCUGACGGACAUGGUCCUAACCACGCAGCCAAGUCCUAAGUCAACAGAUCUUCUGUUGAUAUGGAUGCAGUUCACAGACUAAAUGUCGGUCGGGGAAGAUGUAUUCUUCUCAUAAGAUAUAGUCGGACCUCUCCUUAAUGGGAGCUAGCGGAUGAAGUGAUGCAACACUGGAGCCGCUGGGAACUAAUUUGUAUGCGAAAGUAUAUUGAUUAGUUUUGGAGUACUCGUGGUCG;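 further: selection with 25 µg/mL kanamycin versus none on LB agar overnight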
# conditions: 37 °C
measuredParameter: self-splicing fitness (ln)
// no unit, no text: just the number

Worked examples, 3 sequences total:
GAAAAGCAAUAUUACGACCG    -0.33
UCAGAGCAAUAUUACGUUUG    -2.36
GCGCAGCAAUAUUACGUACC    -0.655

Record summary for UAUAAGCAAUAUUACGCUAU : reported self-splicing fitness (ln) = -1.92

Record summary for AGGCAGCAAUAUUACGUACU : reported self-splicing fitness (ln) = 0.323

Record summary for UAGUAGCAAUAUUACGCUGA : reported self-splicing fitness (ln) = -0.637

Record summary for CUACAGCAAUAUUACGUGUU : reported self-splicing fitness (ln) = -2.94

* * *

# measurementProtocol: self-splicing fitness, log relative to wild type (ln ratio); higher = more splicing; Tetrahymena group I intron in knt gene, E. coli kanamycin selection, DiMSum; sequences stand for … in CUCUCU…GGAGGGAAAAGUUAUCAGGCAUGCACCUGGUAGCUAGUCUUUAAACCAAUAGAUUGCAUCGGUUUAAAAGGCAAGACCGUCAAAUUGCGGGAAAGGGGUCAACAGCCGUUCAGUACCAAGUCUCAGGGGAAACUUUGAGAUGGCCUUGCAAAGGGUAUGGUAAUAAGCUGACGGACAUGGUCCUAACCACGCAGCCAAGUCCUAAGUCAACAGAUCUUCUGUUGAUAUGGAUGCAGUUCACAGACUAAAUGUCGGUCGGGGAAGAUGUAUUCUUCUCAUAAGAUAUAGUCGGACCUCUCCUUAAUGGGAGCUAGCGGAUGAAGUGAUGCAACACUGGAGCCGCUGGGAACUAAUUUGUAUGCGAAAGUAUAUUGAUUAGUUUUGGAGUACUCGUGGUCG
# conditions: 30 °C
measuredParameter: self-splicing fitness (ln)

Worked examples, 3 sequences total:
GCGUAGCAAUAUUACGGACA    -1.31
UCUAAGCAAUAUUACGACGG    0.00998
AAUAAGCAAUAUUACGCCAG    -1.88

Record summary for CUCGAGCAAUAUUACGCAUA : reported self-splicing fitness (ln) = -2.34

Record summary for CUGUAGCAAUAUUACGAUGA : reported self-splicing fitness (ln) = -1.86

Record summary for UUGUAGCAAUAUUACGUUCA : reported self-splicing fitness (ln) = -1.07

Record summary for GUUCAGCAAUAUUACGACCG : reported self-splicing fitness (ln) = -3.83

Record summary for GAGAAGCAAUAUUACGUUAA : reported self-splicing fitness (ln) = -2.68
